target: PI3Kγ (Homo sapiens (Human), UniProt P48736); assay: TR-FRET enzymatic assay of PI3K isoforms (PI3Kγ); assay type: biochemical; details: TR-FRET, 2×Km ATP, 2 μM PIP2, PI3Kγ at 2 nM, incubated for 30 minutes at 25° C.; read-out: γ IC50
Sequence (P48736 whole entry, canonical isoform): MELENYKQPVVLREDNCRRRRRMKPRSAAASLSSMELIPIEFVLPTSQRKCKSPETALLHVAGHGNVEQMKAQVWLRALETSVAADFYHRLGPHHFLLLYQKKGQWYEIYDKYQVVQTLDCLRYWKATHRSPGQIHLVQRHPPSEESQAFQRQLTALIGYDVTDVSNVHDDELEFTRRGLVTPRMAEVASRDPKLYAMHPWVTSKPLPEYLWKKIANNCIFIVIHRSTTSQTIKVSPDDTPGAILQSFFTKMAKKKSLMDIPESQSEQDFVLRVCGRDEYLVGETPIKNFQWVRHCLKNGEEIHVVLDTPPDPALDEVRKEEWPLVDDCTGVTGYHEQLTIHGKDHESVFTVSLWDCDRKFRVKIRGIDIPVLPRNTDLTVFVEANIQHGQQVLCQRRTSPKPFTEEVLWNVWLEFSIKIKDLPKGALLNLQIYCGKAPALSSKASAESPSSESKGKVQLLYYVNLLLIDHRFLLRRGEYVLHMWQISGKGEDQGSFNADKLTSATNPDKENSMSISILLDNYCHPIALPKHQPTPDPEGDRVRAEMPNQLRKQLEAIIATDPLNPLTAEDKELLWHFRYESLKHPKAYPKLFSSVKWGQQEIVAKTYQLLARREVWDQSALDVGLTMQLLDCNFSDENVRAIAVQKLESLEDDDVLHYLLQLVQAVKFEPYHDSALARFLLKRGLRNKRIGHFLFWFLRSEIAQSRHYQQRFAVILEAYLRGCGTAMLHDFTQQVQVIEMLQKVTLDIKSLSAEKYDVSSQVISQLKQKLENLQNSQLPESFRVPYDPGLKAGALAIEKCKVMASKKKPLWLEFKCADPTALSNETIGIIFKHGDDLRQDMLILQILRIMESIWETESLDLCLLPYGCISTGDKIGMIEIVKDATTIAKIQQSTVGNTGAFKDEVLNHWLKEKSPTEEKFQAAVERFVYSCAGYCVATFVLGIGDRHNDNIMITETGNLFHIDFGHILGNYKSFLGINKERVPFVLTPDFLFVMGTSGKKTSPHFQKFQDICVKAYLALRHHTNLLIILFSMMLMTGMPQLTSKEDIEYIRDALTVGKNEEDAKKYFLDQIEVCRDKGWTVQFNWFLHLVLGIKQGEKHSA
Sequence (Q8WYR1 whole entry partner, canonical isoform): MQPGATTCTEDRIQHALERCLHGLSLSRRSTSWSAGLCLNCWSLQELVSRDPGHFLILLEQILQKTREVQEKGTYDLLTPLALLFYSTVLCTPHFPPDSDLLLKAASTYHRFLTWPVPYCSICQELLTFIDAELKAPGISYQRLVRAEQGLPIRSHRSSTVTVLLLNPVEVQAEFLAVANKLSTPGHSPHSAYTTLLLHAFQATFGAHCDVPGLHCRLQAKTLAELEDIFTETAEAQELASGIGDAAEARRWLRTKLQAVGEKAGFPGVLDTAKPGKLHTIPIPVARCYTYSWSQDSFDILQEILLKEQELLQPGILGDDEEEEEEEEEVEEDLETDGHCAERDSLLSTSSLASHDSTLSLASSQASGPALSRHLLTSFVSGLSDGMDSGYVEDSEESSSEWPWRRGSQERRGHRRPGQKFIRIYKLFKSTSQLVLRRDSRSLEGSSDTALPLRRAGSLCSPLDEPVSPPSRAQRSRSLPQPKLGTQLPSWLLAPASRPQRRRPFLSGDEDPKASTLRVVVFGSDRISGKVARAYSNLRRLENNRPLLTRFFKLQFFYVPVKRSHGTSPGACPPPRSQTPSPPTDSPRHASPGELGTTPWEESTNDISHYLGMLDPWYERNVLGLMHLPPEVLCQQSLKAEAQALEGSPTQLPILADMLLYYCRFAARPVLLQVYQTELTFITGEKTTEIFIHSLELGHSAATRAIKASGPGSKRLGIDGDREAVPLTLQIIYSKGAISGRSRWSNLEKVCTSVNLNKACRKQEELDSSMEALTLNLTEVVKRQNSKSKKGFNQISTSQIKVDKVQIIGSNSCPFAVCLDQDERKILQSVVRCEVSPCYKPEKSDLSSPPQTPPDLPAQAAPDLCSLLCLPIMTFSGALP
pIC50: −log10 of the molar value.
Result Type: pIC50

Reference set, count: 5
>>> observed_result("C[C@H](Nc1ncnc(N)c1C#N)c1nc2cccc(Cl)c2c(=O)n1-c1cccc(NC(=O)Nc2ccccc2OCC(=O)O)c1")
5.48
>>> observed_result("CCNC(=O)Nc1cccc(-n2c([C@H](C)Nc3ncnc(N)c3C#N)nc3c(F)ccc(Cl)c3c2=O)c1")
5.42
>>> observed_result("NC(=O)c1cc(F)cc(-n2c([C@@H](Nc3nc(N)nc(N)c3Cl)C3CC3)nc3cccc(Cl)c3c2=O)c1")
5.59
>>> observed_result("C[C@H](Nc1ncnc(N)c1C#Cc1ccccn1)c1nc2cccc(Cl)c2c(=O)n1-c1cccc(C(N)=O)c1")
5.82
>>> observed_result("C[C@H](Nc1nc(N)nc(C(F)F)c1C#N)c1nc2c(Cl)cc(F)cc2c(=O)n1-c1cccc(C(N)=O)c1")
5.14

P = CC(C)NC(=O)Nc1cc(-n2c([C@H](C)Nc3ncnc(N)c3C#N)nc3cccc(Cl)c3c2=O)ccc1F
Q = Cc1ccccc1NC(=O)Nc1cccc(-n2c([C@H](C)Nc3ncnc(N)c3C#N)nc3cccc(Cl)c3c2=O)c1
R = CCNC(=O)Nc1cccc(-n2c([C@H](C)Nc3ncnc(N)c3C#N)nc3cccc(Cl)c3c2=O)c1
S = N#Cc1c(N)nc(N)nc1N[C@H](c1nc2cccc(C(F)F)c2c(=O)n1-c1cccc(C(N)=O)c1)C1CC1
Sort ascending by pIC50. Arrange the labels as the request states and list them.
P, R, Q, S
(P: 5.02, R: 5.47, Q: 5.82, S: 6.70)

1 = CCNC(=O)Nc1ccc(Cl)c(-n2c([C@H](C)Nc3ncnc(N)c3C#N)nc3cccc(Cl)c3c2=O)c1 (atropisomer, axis not shown)
2 = CCNC(=O)Nc1cccc(-n2c([C@H](COCc3ccccc3)Nc3ncnc(N)c3C#N)nc3cccc(Cl)c3c2=O)c1
Compare reported pIC50 values for 1 and 2 . Which is lower? Use the label to indicate which entry you chose.
2
(2: 5.06, 1: 5.64)

P = C[C@H](Nc1ncnc(N)c1C#N)c1nc2cccc(Cl)c2c(=O)n1-c1cccc(NC(=O)NC2CCCCC2)c1
Q = C[C@H](Nc1ncnc(N)c1C#N)c1nc2cccc(Cl)c2c(=O)n1-c1cccc(NC(=O)NC(C)(C)C(=O)O)c1
Looking at P and Q , which one comes out lower in pIC50 terms? Mark your selection by writing its label.
Q

1 = CCNC(=O)Nc1cccc(-n2c([C@H](C)Oc3ncnc4scnc34)nc3cccc(Cl)c3c2=O)c1
2 = C[C@H](Nc1ncnc2[nH]cnc12)c1nc2cccc(Cl)c2c(=O)n1-c1cccc(NC(N)=O)c1
Lab log: flag the item ( 1 or 2 ) with the smaller pIC50 figure. Lab log: write the label of the selected item as the result.
2

1 = C[C@H](Nc1ncnc(N)c1C#N)c1nc2cccc(Cl)c2c(=O)n1-c1cccc(NC(=O)NC2CCCC2)c1
2 = C[C@H](Nc1ncnc(N)c1C#N)c1nc2cccc(Cl)c2c(=O)n1-c1cccc(NC(=O)NS(=O)(=O)C2CC2)c1
Could you point out whether the larger pIC50 belongs to 1 or to 2 ? Field: selected label. Fill in the label of the entry you choose.
1

P = CCNC(=O)Nc1ccc(C)c(-n2c([C@H](C)Nc3ncnc(N)c3C#N)nc3cccc(Cl)c3c2=O)c1 (atropisomer, axis not shown) [Compound 61]
Q = CCNC(=O)Nc1cccc(-n2c([C@H](COCc3ccccc3)Nc3ncnc4[nH]cnc34)nc3cccc(Cl)c3c2=O)c1
R = C[C@H](Nc1ncnc(N)c1C#N)c1nc2cccc(Cl)c2c(=O)n1-c1cccc(NC(=O)NCC(C)(C)CO)c1
Number of molecules to sort: 3. Sort criterion: pIC50, ascending. Your reply should list the labels following the order given in the request.
Q, P, R
(Q: 5.00, P: 5.60, R: 5.80)
